System: FU-OV-1 (Ovarian Carcinoma);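 also: after 72 h of two-drug dosing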
assay comment: Bliss excess, mean over the matrix (fraction); higher = more synergy
The entries below are paired with their reported Bliss excess.
Answer with the value's number alone.

Here are 3 compounds together with their reported answers.
- compound: "CC(=O)c1c(C)c2cnc(Nc3ccc(N4CCNCC4)cn3)nc2n(C2CCCC2)c1=O [Palbociclib] + Cc1c2c(nn1C)CSCc1cc(n(C)n1)CSc1cc(c3ccccc3c1)OCCCc1c(C(=O)O)n(C)c3c-2c(Cl)ccc13 [AZD5991] (first compound max 10 µM, 7x7, partner max 1 µM)"
  Bliss excess: -0.0538
- compound: "NC1(C(=O)N[C@@H](CCO)c2ccc(Cl)cc2)CCN(c2ncnc3[nH]ccc23)CC1 [Capivasertib] + COc1nnc2ccc(N3CCC(c4ccc(OCCN5CCN(C)C(=O)[C@H]5C)cc4)CC3)nn12 [AZD5153] (first compound max 10 µM, 7x7, partner max 1 µM)"
  Bliss excess: -0.0492
- compound: "Cn1cnc2c(F)c(Nc3ccc(Br)cc3Cl)c(C(=O)NOCCO)cc21 [Selumetinib] + CCN(CCO)CCCOc1ccc2c(Nc3cc(CC(=O)Nc4cccc(F)c4)[nH]n3)ncnc2c1 [AZD2811] (first compound max 10 µM, 7x7, partner max 1 µM)"
  Bliss excess: 0.0176

Now, please, on to the next compound.
Q: What measured Bliss excess goes with COc1cc2ncnc(Nc3ccc(F)c(Cl)c3)c2cc1OCCCN1CCOCC1 [Gefitinib] + CC(C)n1c(=O)n(C)c2cnc3cc(F)c(-c4ccc(OCCCN5CCCCC5)nc4)cc3c21 [AZD1390] (first compound max 10 µM, 7x7, partner max 0.3 µM) ?
Ans: -0.0717
